# Test system: Aphis craccivoral
# Experiment summary: Insecticidal activity against Aphis craccivoral by immersing (dipping aphids on bean sprout)
# Format: in vivo
# Measurement parameters: 500 ppm (500 ug/mL dilution), dipped 5 seconds, killed aphis counted after 24 hours, 23° C.
Property: mortality (%) (500 ppm) Aphis
Write down the numeric answer in % and omit the unit.

Q) Query (compound): N=C1CCC([N+](=O)[O-])=C2N(Cc3cnc(Cl)s3)CCN12 [Compound 212] ; field requested: mortality (%) (500 ppm) Aphis
A) 34

Q) Please give the result for CC(C)N=C1CCC([N+](=O)[O-])=C2N(Cc3ccc(Cl)nc3)CCCN12 [Compound 206] too.
A) 56

Q) Repeat for the following compound: CCCCN=C1CCC([N+](=O)[O-])=C2N(Cc3cnc(Cl)s3)CCCN12 [Compound 224]
A) 45

Q) Field entry: O=[N+]([O-])C1=C2N(Cc3cnc(Cl)s3)CCCN2C(=NCCCl)CC1 [Compound 223]
A) 5

Q) What about this compound? CC(C)CCN=C1CCC([N+](=O)[O-])=C2N(Cc3ccc(Cl)nc3)CCN12 [Compound 196]
A) 12

Q) CC(C)(C)CSC1CCC([N+](=O)[O-])=C2N(Cc3cnc(Cl)s3)CCN21 (centres unmarked) [Compound 185] ?
A) 36

Q) Repeat for the following compound: O=[N+]([O-])C1=C2N(Cc3cnc(Cl)s3)CCN2C(SCC(F)(F)F)CC1 (centres unmarked) [Compound 174]
A) 67

Q) Then this compound: CCCCCN=C1CCC([N+](=O)[O-])=C2N(Cc3cnc(Cl)s3)CCCN12 [Compound 226]
A) 22

---

# Test system: Nilaparvata lugens
# Experiment summary: Insecticidal activity against Nilaparvata lugens (planthopper) by spraying
# Type: in vivo
# Measurement parameters: 500 ppm, spraying 2 ml per tumbler, killed counted after 24 hours
// assign Met if mortality (%) (500 ppm) Nilaparvata-lugens falls strictly below 70%, else Not met (ties count as Not met)

CC(C)N=C1CCC([N+](=O)[O-])=C2N(Cc3ccc(Cl)nc3)CCN12 [Compound 193] | Not met

Q) Say whether its mortality (%) (500 ppm) Nilaparvata-lugens is strictly beneath 70%. Entry: O=[N+]([O-])C1=C2N(Cc3cnc(Cl)s3)CCCN2C(=NCCCl)CC1 [Compound 223]
A) Not met

Q) Same question, CC(C)N=C1CCC([N+](=O)[O-])=C2N(Cc3cnc(Cl)s3)CCCN12 [Compound 227] this time
A) Not met

Q) And what about the compound CCCCCN=C1CCC([N+](=O)[O-])=C2N(Cc3ccc(Cl)nc3)CCCN12 [Compound 208] ?
A) Met

Q) For O=[N+]([O-])C1=C2N(Cc3ccc(Cl)nc3)CCN2C(=NCCCl)CC1 [Compound 191] then?
A) Not met

Q) Okay, and CCN=C1CCC([N+](=O)[O-])=C2N(Cc3ccc(Cl)nc3)CCCN12 [Compound 203] ?
A) Not met

---

# System: Aphis craccivoral
# Experiment summary: Insecticidal activity against Aphis craccivoral by immersing (dipping aphids on bean sprout)
# Assay type: in vivo
# Measurement parameters: 500 ppm; immersing (dipped 5 seconds); counted after 24 hours; 23° C.
Property: mortality (%) (500 ppm) Aphis
The reply should contain only the number, in %.

CCCCOC1CCC([N+](=O)[O-])=C2N(CC3CCOC3)CCN21 (stereo not drawn) | 9

Query compound follows.
Q) Record COCCSC1CCC([N+](=O)[O-])=C2N(Cc3ccc(Cl)nc3)CCN21 (stereo not drawn) : what is its mortality (%) (500 ppm) Aphis with Aphis craccivoral?
A) 67

---

# mortality (%) (500 ppm) Aphis per record follows
# Tested on: Aphis craccivoral
# Experiment summary: Insecticidal activity against Aphis craccivoral by immersing (dipping aphids on bean sprout)
# Format: in vivo
# Measurement parameters: 500 ppm; immersing (dipped 5 seconds); counted after 24 hours; 23° C.
Answer with the figure and its unit, nothing else.

Take a look at these entries with their results.
CC(C)(C)OC1CCC([N+](=O)[O-])=C2N(Cc3ccc(Cl)nc3)CCCN21 (centres unmarked) [Compound 82] | 12%
O=[N+]([O-])C1=C2N(Cc3ccc(Cl)nc3)CCN2C(SCC(F)(F)F)CC1 (centres unmarked) [Compound 135] | 98%
CCCCSC1CCC([N+](=O)[O-])=C2N(Cc3ccc(Cl)nc3)CCN21 (centres unmarked) [Compound 139] | 34%
CCC(C)OC1CCC([N+](=O)[O-])=C2N(CC3CCOC3)CCCN21 (centres unmarked) [Compound 109] | 2%
C=CCOC1CCC([N+](=O)[O-])=C2N(CC3CCOC3)CCN21 (centres unmarked) [Compound 64] | 37%

Q) Dear colleague, I am looking for the recorded mortality (%) (500 ppm) Aphis of the following compound: O=[N+]([O-])C1=C2N(Cc3ccc(Cl)nc3)CCN2C(OS(=O)(=O)c2ccccc2)CC1 (centres unmarked) [Compound 119]
A) 3%

Q) Query CCCOC1CCC([N+](=O)[O-])=C2N(Cc3cnc(Cl)s3)CCCN21 (centres unmarked) [Compound 90] next
A) 34%

Q) Next entry: CCCCCOC1CCC([N+](=O)[O-])=C2N(Cc3cnc(Cl)s3)CCN21 (racemic) [Compound 36]
A) 34%

---

Entries and their measured mortality (%) (500 ppm) Nilaparvata-lugens follow.
# Test system: Nilaparvata lugens
# Experiment summary: Insecticidal activity against Nilaparvata lugens (planthopper) by spraying
# Type: in vivo
# Measurement parameters: 500 ppm, spraying 2 ml per tumbler, killed counted after 24 hours
# Procedure: Test on the insecticidal activity of Compound Nos. 1-227 Planthopper, which belongs to Homoptera and has a piercing-sucking mouthpart, is a common insect for agricultural plant. Nilaparvata lugens was tested by the way of spraying. Test method: the test compound was exactly formulated into a solution having a certain concentration and clean water was used as a blank control. […] The number of killed Nilaparvata lugens was counted after 24 hours to calculate the mortality.
Express the result in % but write the number alone.

Previously resolved entries follow.
O=C(OC1CCC([N+](=O)[O-])=C2N(Cc3cnc(Cl)s3)CCN21)c1ccccc1F (stereo not shown) | 100
N=C1CCC([N+](=O)[O-])=C2N(Cc3ccc(Cl)nc3)CCCN12 | 55
CCC(C)SC1CCC([N+](=O)[O-])=C2N(Cc3cnc(Cl)s3)CCN21 (stereo not shown) | 78

# input for lookup
Q) Item under review: COCCSC1CCC([N+](=O)[O-])=C2N(Cc3cnc(Cl)s3)CCN21 (stereo not shown) . Reported mortality (%) (500 ppm) Nilaparvata-lugens?
A) 100

---

# Test system: Aphis craccivoral
# Experiment summary: Insecticidal activity against Aphis craccivoral by immersing (dipping aphids on bean sprout)
# Assay type: in vivo
# Measurement parameters: 500 ppm (500 ug/mL dilution), dipped 5 seconds, killed aphis counted after 24 hours, 23° C.
Rule: measured mortality (%) (500 ppm) Aphis below 60% gets 1; anything equal to or greater than 60% gets 0.

Consider the worked cases shown below.
CC(C)(C)SC1CCC([N+](=O)[O-])=C2N(Cc3cnc(Cl)s3)CCN21 (centres unmarked) | 1
O=C(OC1CCC([N+](=O)[O-])=C2N(Cc3cnc(Cl)s3)CCN21)c1ccc(C(F)(F)F)cc1 (centres unmarked) | 0
CCOCCN=C1CCC([N+](=O)[O-])=C2N(Cc3ccc(Cl)nc3)CCN12 | 1
CC(C)N=C1CCC([N+](=O)[O-])=C2N(Cc3ccc(Cl)nc3)CCN12 | 0
CCCN=C1CCC([N+](=O)[O-])=C2N(Cc3ccc(Cl)nc3)CCCN12 | 1

Q) Does `CCCCCN=C1CCC([N+](=O)[O-])=C2N(Cc3ccc(Cl)nc3)CCN12` have mortality (%) (500 ppm) Aphis strictly under 60%?
A) 1

Q) What do we get for CCC(C)SC1CCC([N+](=O)[O-])=C2N(Cc3cnc(Cl)s3)CCN21 (centres unmarked) ?
A) 1

Q) Then O=C(OC1CCC([N+](=O)[O-])=C2N(Cc3cnc(Cl)s3)CCN21)c1ccccc1F (centres unmarked) ?
A) 1

---

# Test system: Nilaparvata lugens
# Experiment summary: Insecticidal activity against Nilaparvata lugens (planthopper) by spraying
# Format: in vivo
# Measurement parameters: 500 ppm; spraying 2 ml; counted after 24 hours
# Procedure: Test on the insecticidal activity of Compound Nos. 1-227 Planthopper, which belongs to Homoptera and has a piercing-sucking mouthpart, is a common insect for agricultural plant. Nilaparvata lugens was tested by the way of spraying. Test method: the test compound was exactly formulated into a solution having a certain concentration and clean water was used as a blank control. […] The number of killed Nilaparvata lugens was counted after 24 hours to calculate the mortality.
Property: mortality (%) (500 ppm) Nilaparvata lugens
Give the value, in units of %, as a plain number.

Use the examples below as a reference point.
O=C(OC1CCC([N+](=O)[O-])=C2N(Cc3cnc(Cl)s3)CCN21)c1ccccn1 (centres unmarked) [Compound 160] | 8
CCCCCOC1CCC([N+](=O)[O-])=C2N(CC3CCOC3)CCN21 (centres unmarked) [Compound 58] | 23
CCOC1CCC([N+](=O)[O-])=C2N(Cc3cnc(Cl)s3)CCN21 (racemic) [Compound 25] | 100
CC(C)(OC1CCC([N+](=O)[O-])=C2N(Cc3cnc(Cl)s3)CCN21)C(Cl)(Cl)Cl (racemic) [Compound 35] | 100
CCOCCOC1CCC([N+](=O)[O-])=C2N(Cc3ccc(Cl)nc3)CCN21 (racemic) [Compound 22] | 100

Q) Entry under review: CC(C)OC1CCC([N+](=O)[O-])=C2N(CC3CCOC3)CCCN21 (centres unmarked) [Compound 105] . Reported mortality (%) (500 ppm) Nilaparvata lugens?
A) 98

Q) Consider next the compound O=[N+]([O-])C1=C2N(Cc3cnc(Cl)s3)CCN2C(OS(=O)(=O)c2ccccc2)CC1 (centres unmarked) [Compound 158] in the same way.
A) 7

Q) Continue with COCCOC1CCC([N+](=O)[O-])=C2N(Cc3ccc(Cl)nc3)CCN21 (racemic) [Compound 21]
A) 100
